- System: K562
- ASSAY NOTES: Anticancer activity against human K562 cells assessed as inhibition of cell growth incubated for 48 hrs by MTT assay
- Type: functional, cell-based
- TEST SETTINGS: K562, 48 h
Reported IC50 values for a set of compounds
Write it as a number; the unit µM goes unstated.

>>> test_value("CCCCCCCCCCCCOc1cc(OCCCCCCCCCCCC)cc(C(=O)NCCNC(=O)CN(C(=O)C(C)C)c2ccc([N+](=O)[O-])c(C(F)(F)F)c2)c1")
15.4

In: Bench note: what IC50 did `COC(=O)CN(C(=O)C(C)C)c1ccc([N+](=O)[O-])c(C(F)(F)F)c1` show?
Out: 14.1

In: Form field: reported IC50 of `CC(C)C(=O)N(CC(=O)NCCN)c1ccc([N+](=O)[O-])c(C(F)(F)F)c1`
Out: 18

In: Any idea what its IC50 is? The compound is `CCCCCCCCCCCCOc1cc(OCCCCCCCCCCCC)cc(C(=O)NCCN(CCC(=O)NCCNC(=O)CN(C(=O)C(C)C)c2ccc([N+](=O)[O-])c(C(F)(F)F)c2)CCC(=O)NCCNC(=O)CN(C(=O)C(C)C)c2ccc([N+](=O)[O-])c(C(F)(F)F)c2)c1`
Out: 6.79

In: Need IC50 of CC(C)C(=O)Nc1ccc([N+](=O)[O-])c(C(F)(F)F)c1 [FLUTAMIDE] , thanks.
Out: 29.2

Source: ChEMBL document CHEMBL4665780
